Could you please report measured IC50 for the items listed next?
# assay_target: MCH receptor (Homo sapiens)
# run_description: High throughput functional screening FLIPR/FDSS6000: inhibition of MCH-evoked intracellular Ca2+ changes
# Assay type: cell-based
# applied_conditions: class by percent of control at 10^-7 M or by IC50; read-out: class

>>> df
                                   molecule  test_value
0  Cc1ccccc1CNC(=O)N[C@H]1CC[C@@H](Nc2nc(N(C)C)c3ccccc3n2)CC1     < 50 nM

Working through the 4 molecules below one at a time, give IC50 for each.
1. CN(C)c1nc(N[C@H]2CC[C@@H](CNC(=O)OCc3ccccc3)CC2)nc2ccccc12
2. CN(C)c1nc(N[C@H]2CC[C@@H](NC(=O)Nc3cccc(C#N)c3)CC2)nc2ccccc12
3. CC(=O)c1ccc(NC(=O)N[C@H]2CC[C@@H](Nc3nc(N(C)C)c4ccccc4n3)CC2)cc1
4. CN(C)c1nc(N[C@H]2CC[C@@H](NC(=O)Nc3ccc(F)c([N+](=O)[O-])c3)CC2)nc2ccccc12

OUT:
1: 50 to 200 nM; 2: > 200 nM; 3: > 200 nM; 4: > 200 nM

###

# assay_target: MCH receptor (Homo sapiens, UniProt Q99705)
# run_description: High throughput functional screening FLIPR/FDSS6000: inhibition of MCH-evoked intracellular Ca2+ changes
# Type: cell-based
# applied_conditions: class by percent of control at 10^−7 M or by IC50; read-out: class
Could you please report measured IC50 for the items listed next?

>>> df
                                   compound                              assay_target  test_value
0  C[C@H](NC(=O)[C@H]1CC[C@@H](Nc2nc(N(C)C)c3ccccc3n2)CC1)c1cccc2ccccc12  MCH receptor (Homo sapiens, UniProt Q99705)     < 50 nM

Working through the 3 compounds below one at a time, give IC50 for each.
1. COc1cccc(Oc2ncccc2C(=O)N[C@H]2CC[C@@H](Nc3nc(N(C)C)c4ccccc4n3)CC2)c1OC
2. CN(C)c1nc(N[C@H]2CC[C@@H](CNC(=O)c3cc(C(F)(F)F)ccc3C(F)(F)F)C2)nc2ccccc12
3. CN(C)c1nc(N[C@H]2CC[C@@H](C(=O)NCc3ccc(Cl)c(Cl)c3)CC2)nc2ccccc12

OUT:
< 50 nM
> 200 nM
< 50 nM

Working through the 4 compounds below one at a time, give IC50 for each.
1. CN(C)c1nc(N[C@H]2CC[C@@H](C(=O)NCc3ccc(Cl)c(C(F)(F)F)c3)CC2)nc2ccccc12
2. CN(C)c1nc(N[C@H]2CC[C@@H](NC(=O)c3ccnc(Oc4cccc(Cl)c4)c3)CC2)nc2ccccc12
3. COc1ccccc1Oc1ccc(C(=O)N[C@H]2CC[C@@H](Nc3nc(N(C)C)c4ccccc4n3)CC2)cn1
4. COc1ccc([C@H](C)NC(=O)[C@H]2CC[C@@H](Nc3nc(N(C)C)c4ccccc4n3)CC2)cc1

OUT:
["< 50 nM", "50 to 200 nM", "< 50 nM", "< 50 nM"]

Working through the 5 compounds below one at a time, give IC50 for each.
1. CN(C)c1nc(N[C@H]2CC[C@@H](CNC(=O)C(O)c3ccc(Cl)cc3)CC2)nc2ccccc12 (relative stereo)
2. COc1ccccc1OCC(=O)N[C@H]1CC[C@@H](Nc2nc(N(C)C)c3ccccc3n2)CC1
3. CN(C)c1nc(N[C@H]2CC[C@@H](C(=O)NCc3cc(F)cc(C(F)(F)F)c3)CC2)nc2ccccc12
4. CN(C)c1nc(N[C@H]2CC[C@@H](C(=O)NCc3ccccc3)CC2)nc2cc(F)c(F)cc12
5. CN(C)c1nc(N[C@H]2CC[C@@H](C(=O)Nc3nc(C(C)(C)C)c(Br)s3)CC2)nc2ccccc12

OUT:
> 200 nM
50 to 200 nM
< 50 nM
50 to 200 nM
> 200 nM

###

# assay_target: MCH receptor (Homo sapiens)
# run_description: High throughput functional screening FLIPR/FDSS6000: inhibition of MCH-evoked intracellular Ca2+ changes
# Type: cell-based
# applied_conditions: class by percent of control at 10^−7 M or by IC50; read-out: class
metric_name: IC50

Recorded IC50, per entry:
In [3]: df
Out[3]:
                                   compound                 assay_target  metric_name    test_value
0  CN(C)c1nc(N[C@H]2CC[C@@H](NC(=O)c3cccnc3Oc3ccc(Cl)c(F)c3)CC2)nc2ccccc12  MCH receptor (Homo sapiens)         IC50       < 50 nM
1  Cc1cccc(OCC(=O)N[C@H]2CC[C@@H](Nc3nc(N(C)C)c4ccccc4n3)CC2)c1  MCH receptor (Homo sapiens)         IC50       < 50 nM
2  CN(C)c1nc(N[C@H]2CC[C@@H](NC(=O)c3ccc(OC(F)(F)F)cc3)CC2)nc2cc(F)c(F)cc12  MCH receptor (Homo sapiens)         IC50      > 200 nM
3  CCOc1ccccc1NC(=O)NC[C@H]1CC[C@@H](Nc2nc(N(C)C)c3ccccc3n2)CC1  MCH receptor (Homo sapiens)         IC50  50 to 200 nM
4  CN(C)c1nc(N[C@H]2CC[C@@H](CNC(=O)Nc3ccc(Cl)cc3Cl)CC2)nc2ccccc12  MCH receptor (Homo sapiens)         IC50  50 to 200 nM

Working through the 2 compounds below one at a time, give IC50 for each.
1. CN(C)c1nc(N[C@H]2CC[C@@H](NC(=O)C(O)c3ccc(Cl)cc3)CC2)nc2ccccc12 (relative stereo)
2. CN(C)c1nc(N[C@H]2CC[C@@H](CNC(=O)[C@@H](O)c3cccc(Cl)c3)CC2)nc2ccccc12

OUT:
["50 to 200 nM", "50 to 200 nM"]

Working through the 3 compounds below one at a time, give IC50 for each.
1. CN(C)c1nc(N[C@H]2CC[C@@H](C(=O)NCc3ccc(C(F)(F)F)cc3F)CC2)nc2ccccc12
2. CN(C)c1nc(N[C@H]2CC[C@@H](NC(=O)c3cccnc3Oc3ccc(OC(F)(F)F)cc3)CC2)nc2ccccc12
3. COc1ccc(OCC(=O)N[C@H]2CC[C@@H](Nc3nc(N(C)C)c4ccccc4n3)CC2)cc1

OUT:
["< 50 nM", "< 50 nM", "< 50 nM"]

Working through the 3 compounds below one at a time, give IC50 for each.
1. CN(C)c1nc(N[C@H]2CC[C@@H](C(=O)NCc3ccccc3OC(F)(F)F)CC2)nc2ccccc12
2. CN(C)c1nc(N[C@H]2CC[C@@H](NC(=O)c3ccc(Oc4ccc(F)cc4)nc3)CC2)nc2ccccc12
3. CN(C)c1nc(N[C@H]2CC[C@@H](NC(=O)c3ccc(Oc4ccc(Cl)c(F)c4)nc3)CC2)nc2ccccc12

OUT:
< 50 nM
> 200 nM
< 50 nM

IN: Given the compound CN(C)c1nc(N[C@H]2CC[C@@H](CNC(=O)Nc3ccccc3Cl)CC2)nc2ccccc12 , write its reported IC50.
OUT: 50 to 200 nM

###

Could you please report measured pIC50 for the items listed next?
# assay_target: MCH receptor (Homo sapiens, UniProt Q99705)
# run_description: High throughput functional screening FLIPR/FDSS6000: inhibition of MCH-evoked intracellular Ca2+ changes
# Type: cell-based
# applied_conditions: class by percent of control at 10^-7 M or by IC50; read-out: class
pIC50: −log10 of the molar value.

Recorded pIC50, per entry:
>>> df
                                  structure                              assay_target  metric_name    test_value
0  CN(C)c1nc(N[C@H]2CC[C@@H](NC(=O)NCc3ccccc3)CC2)nc2ccccc12  MCH receptor (Homo sapiens, UniProt Q99705)        pIC50  6.70 to 7.30
1  CN(C)c1nc(N[C@H]2CC[C@@H](NC(=O)Nc3ccc4c(c3)CCC4)CC2)nc2ccccc12  MCH receptor (Homo sapiens, UniProt Q99705)        pIC50        < 6.70
2  C=C(C)c1cccc(C(C)(C)NC(=O)N[C@H]2CC[C@@H](Nc3nc(N(C)C)c4ccccc4n3)CC2)c1  MCH receptor (Homo sapiens, UniProt Q99705)        pIC50        > 7.30
3  CN(C)c1nc(N[C@H]2CC[C@@H](NC(=O)Nc3ccc(Cl)cc3)CC2)nc2ccccc12  MCH receptor (Homo sapiens, UniProt Q99705)        pIC50        < 6.70
4  CN(C)c1nc(N[C@H]2CC[C@@H](NC(=O)Nc3cc(C(F)(F)F)ccc3F)CC2)nc2ccccc12  MCH receptor (Homo sapiens, UniProt Q99705)        pIC50        < 6.70

Working through the 2 compounds below one at a time, give pIC50 for each.
1. Cc1ccccc1NC(=S)N[C@H]1CC[C@@H](Nc2nc(N(C)C)c3ccccc3n2)CC1
2. CCCCNC(=O)N[C@H]1CC[C@@H](Nc2nc(N(C)C)c3ccccc3n2)CC1

OUT:
["< 6.70", "> 7.30"]
